- measured_target: human DGKα (Homo sapiens, UniProt P23743)
- Construct: TVMV protease cleavage site (C); Hexa-His (C); made in house; host or cells: Sf9 insect cells (baculovirus, Bac-to-Bac)
- Sequence (P23743 with tags, fused parts or gaps): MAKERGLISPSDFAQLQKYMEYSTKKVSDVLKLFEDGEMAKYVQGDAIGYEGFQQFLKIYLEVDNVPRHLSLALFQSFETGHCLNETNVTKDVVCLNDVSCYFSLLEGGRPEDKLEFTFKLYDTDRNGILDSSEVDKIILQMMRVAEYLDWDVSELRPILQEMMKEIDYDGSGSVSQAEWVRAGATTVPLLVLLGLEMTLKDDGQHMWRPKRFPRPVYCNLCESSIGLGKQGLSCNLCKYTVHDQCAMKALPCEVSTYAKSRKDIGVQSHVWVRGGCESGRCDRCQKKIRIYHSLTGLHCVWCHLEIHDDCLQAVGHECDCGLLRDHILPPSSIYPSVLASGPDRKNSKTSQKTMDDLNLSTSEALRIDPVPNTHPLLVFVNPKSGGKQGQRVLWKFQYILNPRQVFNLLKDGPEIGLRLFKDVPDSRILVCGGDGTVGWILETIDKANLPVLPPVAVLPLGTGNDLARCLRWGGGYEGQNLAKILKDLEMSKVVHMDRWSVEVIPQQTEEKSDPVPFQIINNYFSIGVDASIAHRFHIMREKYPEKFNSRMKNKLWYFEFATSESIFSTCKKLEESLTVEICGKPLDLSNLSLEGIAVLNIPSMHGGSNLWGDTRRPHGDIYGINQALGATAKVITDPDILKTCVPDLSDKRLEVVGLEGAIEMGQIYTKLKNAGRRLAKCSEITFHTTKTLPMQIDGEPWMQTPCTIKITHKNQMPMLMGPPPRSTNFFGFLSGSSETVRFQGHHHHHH
- procedure_details: DGKα LIPGLO assay (extruded liposome substrate), in vitro DGK inhibition
- Type: biochemical
- assay_setup: DGKα liposome (LIPGLO) assay; read-out: DGKa LIPGLO IC50
reported_property: IC50 (µM)

// solved cases for IC50 follow
Ask: Quote IC50 reported for "C[C@@H]1CN(c2c(C#N)c(=O)n(C)c3ccc(C#N)nc23)CCN1Cc1ccc(F)cc1Cl" please.
Result: 1.3

Ask: Quote IC50 reported for C[C@@H]1CN(c2cc(=O)n(C)c3ccc(C#N)nc23)[C@@H](C)CN1C(c1ccc(F)cc1)c1nc(C2CC2)co1 (stereo partly drawn) [Example 776] please.
Result: 0.055

[I] C[C@@H]1CN(c2c(C#N)c(=O)n(C)c3ccc(C#N)nc23)CCN1C(c1ccc(Cl)cc1)c1ccc(C#N)cc1 (single isomer, unassigned) [Example 872]
[II] CCc1ccc(C(c2ccc(F)cc2)N2CCN(c3c(C#N)c(=O)n(C)c4ccc(C#N)nc34)C[C@H]2C)cc1 (stereo partly drawn) [Example 884]
[III] C[C@@H]1CN(c2cc(=O)n(C)c3ccc(C#N)nc23)[C@@H](C)CN1C(c1ccc(F)cc1)c1nc(C(F)F)no1 (stereo partly drawn) [Example 744]
[IV] C[C@@H]1CN(c2c(C#N)c(=O)n(C)c3ccc(C#N)nc23)CCN1C(c1ccc(F)cc1)c1cccc2c1OC(F)(F)O2 (single isomer, unassigned) [Example 939]
Ask: Please list the entries, largest IC50 first. Output the labels ranked as instructed.
Result: IV, II, I, III
(IV: 83 µM, II: 4.6 µM, I: 1.5 µM, III: 0.049 µM)

---

- measured_target: human DGKζ (Homo sapiens)
- Construct: TVMV protease cleavage site (C); Hexa-His (C); made in house; host or cells: Sf9 insect cells (baculovirus, Bac-to-Bac)
- Sequence (Q13574 with tags, fused parts or gaps isoform Q13574-4): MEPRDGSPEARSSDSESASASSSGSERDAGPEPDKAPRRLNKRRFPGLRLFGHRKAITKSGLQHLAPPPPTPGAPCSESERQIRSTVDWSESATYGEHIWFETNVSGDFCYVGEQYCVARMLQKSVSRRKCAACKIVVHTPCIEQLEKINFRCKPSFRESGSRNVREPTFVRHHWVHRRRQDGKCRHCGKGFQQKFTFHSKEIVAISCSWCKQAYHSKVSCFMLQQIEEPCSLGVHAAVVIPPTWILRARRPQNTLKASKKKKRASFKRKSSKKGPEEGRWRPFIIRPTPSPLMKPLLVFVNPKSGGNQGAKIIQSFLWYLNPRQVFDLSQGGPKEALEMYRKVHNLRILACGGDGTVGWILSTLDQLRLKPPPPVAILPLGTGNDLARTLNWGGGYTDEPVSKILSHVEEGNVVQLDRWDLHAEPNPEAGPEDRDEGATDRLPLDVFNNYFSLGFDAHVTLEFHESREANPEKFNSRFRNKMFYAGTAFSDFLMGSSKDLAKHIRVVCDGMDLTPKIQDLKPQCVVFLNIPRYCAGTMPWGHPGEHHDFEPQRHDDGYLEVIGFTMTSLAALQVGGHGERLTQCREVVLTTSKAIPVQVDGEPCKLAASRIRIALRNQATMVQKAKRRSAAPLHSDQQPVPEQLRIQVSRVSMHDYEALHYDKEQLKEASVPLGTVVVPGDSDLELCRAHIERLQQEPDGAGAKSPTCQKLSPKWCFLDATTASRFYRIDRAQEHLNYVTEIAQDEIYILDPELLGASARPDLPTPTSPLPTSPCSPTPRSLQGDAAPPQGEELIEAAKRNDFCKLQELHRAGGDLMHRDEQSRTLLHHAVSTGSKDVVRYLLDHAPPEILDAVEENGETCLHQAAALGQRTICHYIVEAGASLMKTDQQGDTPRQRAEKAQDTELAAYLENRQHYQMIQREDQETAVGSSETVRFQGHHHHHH
- procedure_details: DGKζ LIPGLO assay (extruded liposome substrate), in vitro DGK inhibition
- Type: biochemical
- assay_setup: liposome (LIPGLO) assay; read-out: DGKz LIPGLO IC50
pIC50: −log10 of the molar value.
reported_property: pIC50

Ask: Quote pIC50 reported for C[C@@H]1CN(c2cc(=O)n(C)c3ccc(C#N)nc23)[C@@H](C)CN1C(c1ccc(Cl)cc1)c1ccccn1 (single isomer, unassigned) [Example 381] please.
Result: 6.30

[1] CCC(c1ccc(OC(F)(F)F)cc1F)N1C[C@H](C)N(c2cc(=O)n(C)c3ccc(C#N)nc23)C[C@H]1C (single isomer, unassigned) [Example 440]
[2] CC[C@H]1CN(C(C)c2ccc(F)c(F)c2)[C@H](C)CN1c1cc(=O)n(C)c2ccc(C#N)nc12 (single isomer, unassigned) [Example 1139]
Ask: Which of these two has the smaller recorded pIC50: 1 or 2 ? Refer to your chosen item by its label in the answer.
Result: 1

---

- measured_target: human DGKα (Homo sapiens, UniProt P23743)
- Construct: TVMV protease cleavage site (C); Hexa-His (C); made in house; host or cells: Sf9 insect cells (baculovirus, Bac-to-Bac)
- procedure_details: DGKα LIPGLO assay (extruded liposome substrate), in vitro DGK inhibition
- Type: biochemical
- assay_setup: liposome (LIPGLO) assay; read-out: DGKa LIPGLO IC50
pIC50: −log10 of the molar value.
reported_property: pIC50

// solved cases for pIC50 follow
Ask: Quote pIC50 reported for CC[C@H]1CN(C(C)c2ccc(OC(F)(F)F)cc2)[C@H](C)CN1c1cc(=O)n(C)c2ccc(C#N)nc12 (single isomer, unassigned) [Example 1141] please.
Result: 8.08

Ask: Quote pIC50 reported for CCC(c1ccc(OC(F)(F)F)cc1)N1C[C@H](C)N(c2cc(=O)n(C)c3ccc(C#N)nc23)C[C@H]1CC (single isomer, unassigned) [Example 1198] please.
Result: 6.00

[a] C[C@@H]1CN(c2cc(=O)n(C)c3ccc(C#N)nc23)[C@@H](C)CN1Cc1noc2ccccc12
[b] CC(C)OC(=O)C1CN(c2c(C#N)c(=O)n(C)c3ccc(C#N)nc23)CCN1C(c1ccc(F)cc1)c1ccc(F)cc1 (single isomer, unassigned) [Example 65]
[c] Cc1ccnc(C(c2ccc(Cl)cc2)N2C[C@H](C)N(c3cc(=O)n(C)c4ccc(C#N)nc34)C[C@H]2C)c1 (single isomer, unassigned) [Example 448]
[d] CC[C@H]1CN(C(C)c2ccc(F)cc2)[C@H](C)CN1c1cc(=O)n(C)c2ccc(C#N)nc12 (single isomer, unassigned) [Example 1135]
Ask: Ordering: ascending pIC50. Output the labels ranked as instructed.
Result: b, a, c, d
(b: 3.62, a: 5.60, c: 6.18, d: 7.74)
